Origin of the recorded values: patent US20110190235A1

For each entry below, report its AUC(0-t) value.
experiment: Pharmacokinetic studies in mice (plasma, brain); type: in vivo; conditions: male, CD-1, mouse; plasma, oral, mice, normalized to 25 mg/kg; read-out: Exposure/trapezoid AUC0-18
Quick note: give the figure in ng·h/mL, leave out the unit.

Output AUC(0-t) of O=C(Nc1ccc2c(c1)B(O)OC2)c1ccc(F)cc1C(F)(F)F [E19] 70600

Let me know recorded AUC(0-t) for CC1(C)OB(O)c2cc(NC(=O)c3ccc(F)cc3C(F)(F)F)ccc21 [compound 82] , thanks. 108000

---

Consider the following compounds; for each one, report its IC50.
system: bloodstream-form trypanosome T. brucei brucei 427 strain; experiment: Trypanosoma brucei brucei high-throughput in vitro drug sensitivity assay (resazurin); type: cell-based; settings: Trypanosoma brucei; 72 hrs incubation; read-out: T. b. brucei IC50

State its IC50: CC1OB(O)c2cc(NC(=O)c3ccccc3C(F)(F)F)ccc21 (centres unmarked) 233 nM

Please list IC50 recorded for the compound CC(=O)Nc1ccc2c(c1)B(O)OC2C1CCCC1 (centres unmarked) > 19300 nM

Quickly give me recorded IC50 for O=C(Nc1ccc2c(c1)B(O)OC21CCCC1)c1ccc(F)cc1C(F)(F)F > 12700 nM

Input CC1OB(O)c2cc(NC(=O)c3ccccc3Br)ccc21 (centres unmarked) , output reported IC50. 124 nM

Answer with the recorded IC50 for the compound listed here: CC1(C)OB(O)c2cc(NC(=O)c3ccccc3C(F)(F)F)ccc21 304 nM

---

Give AUC(0-t) for every item shown.
assay: Pharmacokinetic studies in mice (plasma, brain); type: in vivo; conditions: male, CD-1, mouse, 8 mg/kg; brain, oral, mice, normalized to 25 mg/kg (Table 3a); read-out: Exposure/trapezoid AUC0-last
Answer in ng·h/mL, number only, no unit symbol.

# return recorded AUC(0-t) for input CC1(C)OB(O)c2cc(NC(=O)c3ccc(F)cc3Cl)ccc21 [compound 69] 20800

Give the reported value of AUC(0-t) for this record: O=C(Nc1ccc2c(c1)B(O)OC2)c1ccc(F)cc1Cl [E14] 3120

---

test system: bloodstream-form trypanosome T. brucei brucei 427 strain; assay: Trypanosoma brucei brucei high-throughput in vitro drug sensitivity assay (resazurin); assay type: cell-based; conditions: Trypanosoma brucei; 72 hrs incubation; read-out: T. b. brucei IC50
ENDPOINT LABEL: IC50 (nM)
Write down the numeric answer in nM and omit the unit.

Tell me IC50 reported for CC1OB(O)c2cc(NC(=O)c3ccc(F)cc3C(F)(F)F)ccc21 (centres unmarked) [compound 1] 258

# return recorded IC50 for input CC(C)CC1OB(O)c2cc(NC(=O)c3ccc(F)cc3C(F)(F)F)ccc21 (centres unmarked) [compound 23] 6100

Consider the compound O=C(Nc1ccc2c(c1)B(O)OC2C1CCCC1)c1ccccc1Cl (centres unmarked) [compound 18] and give its recorded IC50. 11900

State its IC50: O=C(Nc1ccc2c(c1)B(O)OC2C1CCCC1)c1ccc(F)cc1C(F)(F)F (centres unmarked) [compound 19] 7810

Report IC50, nothing else, for this compound: CC1(C)OB(O)c2cc(NC(=O)c3ccc(F)cc3F)ccc21 [compound 63] 8390

Please give the documented IC50 of COc1cccc(C(=O)Nc2ccc3c(c2)B(O)OC3C)c1 (centres unmarked) [compound 6] 155

Answer with the recorded IC50 of CC1OB(O)c2cc(NC(=O)c3ccc(F)cc3F)ccc21 (centres unmarked) [compound 12] only. 267

Return IC50 (reported value) for this compound: CC1OB(O)c2cc(NC(=O)c3ccc(F)cc3Br)ccc21 (centres unmarked) [compound 16] 294

Name the recorded IC50 of the item CC1(C)OB(O)c2cc(NC(=O)c3ccccc3Cl)ccc21 [compound 38] in your answer. 532

Give a short answer stating reported IC50 for CC1(C)OB(O)c2cc(NC(=O)c3ccc(F)cc3Br)ccc21 [compound 74] . 1490

Tell me IC50 reported for CC1OB(O)c2cc(NC(=O)c3ccccc3F)ccc21 (centres unmarked) [compound 8] 246

For the compound COc1ccc(C(=O)Nc2ccc3c(c2)B(O)OC3(C)C)cc1 [compound 48] , give its measured IC50 value. 3570

Give me measured IC50, please, for this compound: COc1ccc(C(=O)Nc2ccc3c(c2)B(O)OC3C)cc1 (centres unmarked) [compound 5] 182

Return IC50 for the following compound: CC1OB(O)c2cc(NC(=O)c3ccccc3Cl)ccc21 (centres unmarked) [compound 4] 80

Specify reported IC50 for the compound shown: CC1OB(O)c2cc(NC(=O)c3ccc(F)cc3)ccc21 (centres unmarked) [compound 3] 175

Return value of IC50 for input O=C(Nc1ccc2c(c1)B(O)OC21CCCC1)c1ccccc1Cl [compound 137] , no commentary. 10600

# return recorded IC50 for input CC1OB(O)c2cc(NC(=O)c3ccccc3I)ccc21 (centres unmarked) [compound 15] 173
